# credit: ChEMBL document CHEMBL1138703

EXPERIMENT_SUMMARY: Compound level in rat brain was determined upon administration at 2 mpk iv or 10 mpk po
Assay type: ADME, organism-based
CONDITION_PARAMETERS: in vivo, read-out: Concentration in Brain
OBSERVATION_TYPE: concentration (nM)
The reply should contain only the number, in nM.

Examples from the recorded data:
[[record]]
chemical_string = "COc1ccccc1Oc1ccc(N(Cc2cccnc2)S(=O)(=O)CC(F)(F)F)cc1"
unit_symbol = "nM"
value_reported = 10

[[record]]
chemical_string = "Cc1c(OCc2cccc(CSc3ccncc3)c2)ccc(C(=O)CC(C)C)c1O"
unit_symbol = "nM"
value_reported = 330


Given item Cc1c(OCCCCSc2ccncc2)ccc(C(=O)CC(C)C)c1O , the value recorded as its concentration is 400

Given item Cc1c(OCc2ccc(Sc3ccncc3)cc2)ccc(C(=O)CC(C)(C)C)c1O , the value recorded as its concentration is 340

---

TARGET_DESC: Metabotropic glutamate receptor 2 (Homo sapiens, UniProt Q14416)
EXPERIMENT_SUMMARY: Binding affinity towards human metabotropic glutamate receptor 2 determined by [35S]GTP gamma S binding assay
Format: functional
Sequence (Q14416 whole entry): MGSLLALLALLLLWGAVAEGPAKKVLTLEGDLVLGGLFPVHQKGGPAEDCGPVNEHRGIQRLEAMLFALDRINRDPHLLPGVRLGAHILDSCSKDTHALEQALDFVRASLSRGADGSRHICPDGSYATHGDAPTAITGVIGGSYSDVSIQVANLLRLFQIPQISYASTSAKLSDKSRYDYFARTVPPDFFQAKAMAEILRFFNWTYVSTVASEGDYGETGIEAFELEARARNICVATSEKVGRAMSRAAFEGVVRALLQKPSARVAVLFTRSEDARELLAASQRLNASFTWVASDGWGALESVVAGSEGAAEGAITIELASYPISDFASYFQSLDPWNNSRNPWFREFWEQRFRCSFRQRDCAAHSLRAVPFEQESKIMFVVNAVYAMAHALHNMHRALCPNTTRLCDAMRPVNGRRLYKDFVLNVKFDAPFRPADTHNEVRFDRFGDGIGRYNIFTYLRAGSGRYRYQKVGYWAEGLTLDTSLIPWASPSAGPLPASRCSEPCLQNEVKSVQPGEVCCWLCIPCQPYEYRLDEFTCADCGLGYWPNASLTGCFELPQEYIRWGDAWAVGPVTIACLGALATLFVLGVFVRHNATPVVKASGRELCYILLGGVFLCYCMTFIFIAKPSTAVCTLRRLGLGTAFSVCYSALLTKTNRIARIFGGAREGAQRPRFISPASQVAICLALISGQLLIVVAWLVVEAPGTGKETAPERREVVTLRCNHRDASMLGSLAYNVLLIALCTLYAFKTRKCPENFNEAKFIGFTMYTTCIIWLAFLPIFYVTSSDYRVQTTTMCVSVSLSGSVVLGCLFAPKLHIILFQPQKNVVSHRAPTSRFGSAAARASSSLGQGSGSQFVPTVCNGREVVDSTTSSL
Listing: pEC50 of selected molecules
Just the number, please; pEC50 means minus log10 of the concentration in mol/L.

Examples from the recorded data:
[[record]]
chemical_string = "CC(C)CC(=O)c1ccc(OCCCCOc2cccc(F)c2F)c(Br)c1O"
target_desc = "Metabotropic glutamate receptor 2 (Homo sapiens, UniProt Q14416)"
value_reported = 6.25

[[record]]
chemical_string = "Cc1c(OCCCCSc2ccncc2)ccc(C(=O)CC(C)C)c1O"
target_desc = "Metabotropic glutamate receptor 2 (Homo sapiens, UniProt Q14416)"
value_reported = 6.47


// next entry
Given item Cc1c(OCCCCOc2ccccc2)ccc(C(=O)CC(C)C)c1O , the value recorded as its pEC50 is 5.34

---

TARGET_DESC: Metabotropic glutamate receptor 2 (Homo sapiens, UniProt Q14416)
EXPERIMENT_SUMMARY: Potentiation as percent of maximum glutamate response at 1 mM
Sequence (Q14416 19-872 limits assumed): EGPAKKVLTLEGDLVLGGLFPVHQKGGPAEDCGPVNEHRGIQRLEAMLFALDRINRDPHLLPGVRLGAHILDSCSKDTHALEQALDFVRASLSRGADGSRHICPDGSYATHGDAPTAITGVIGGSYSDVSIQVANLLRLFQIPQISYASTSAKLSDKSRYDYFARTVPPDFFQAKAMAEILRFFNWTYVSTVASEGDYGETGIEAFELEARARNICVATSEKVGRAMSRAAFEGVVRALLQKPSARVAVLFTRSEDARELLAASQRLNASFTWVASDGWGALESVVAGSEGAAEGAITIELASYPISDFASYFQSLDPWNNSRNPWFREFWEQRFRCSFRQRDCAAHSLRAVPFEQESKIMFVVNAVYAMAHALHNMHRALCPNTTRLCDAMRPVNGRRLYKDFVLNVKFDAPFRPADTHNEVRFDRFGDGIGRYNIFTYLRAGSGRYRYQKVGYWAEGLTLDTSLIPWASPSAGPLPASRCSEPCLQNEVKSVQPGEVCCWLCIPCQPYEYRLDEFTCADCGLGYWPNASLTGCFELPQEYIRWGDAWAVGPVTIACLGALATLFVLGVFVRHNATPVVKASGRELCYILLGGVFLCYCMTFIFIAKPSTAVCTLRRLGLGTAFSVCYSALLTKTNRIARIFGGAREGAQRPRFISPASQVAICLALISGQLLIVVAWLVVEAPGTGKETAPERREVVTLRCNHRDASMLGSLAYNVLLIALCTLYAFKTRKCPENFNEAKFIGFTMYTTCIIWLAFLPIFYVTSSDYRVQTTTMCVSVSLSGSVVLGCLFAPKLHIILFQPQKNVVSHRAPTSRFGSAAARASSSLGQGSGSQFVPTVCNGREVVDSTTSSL
Listing: Potentiation of selected molecules
The reply should contain only the number, in %.

[[record]]
chemical_string = "CC(C)CC(=O)c1ccc(OCCCCOc2cccnc2)c(Br)c1O"
unit_symbol = "%"
value_reported = 67

[[record]]
chemical_string = "Cc1c(OCCCCOc2ccccn2)ccc(C(=O)CC(C)C)c1O"
unit_symbol = "%"
value_reported = 33

[[record]]
chemical_string = "Cc1c(OCc2cccc(Sc3ccncc3)c2)ccc(C(=O)CC(C)C)c1O"
unit_symbol = "%"
value_reported = 58

[[record]]
chemical_string = "Cc1c(OCCCCOc2cccnc2)ccc(C(=O)CC(C)C)c1O"
unit_symbol = "%"
value_reported = 46


Potentiation on Metabotropic glutamate receptor 2 (Homo sapiens, UniProt Q14416) for Cc1c(OCCCCOc2ccncc2)ccc(C(=O)CC(C)C)c1O is 40

Potentiation on Metabotropic glutamate receptor 2 (Homo sapiens, UniProt Q14416) for Cc1c(OCCCCSc2cccnc2)ccc(C(=O)CC(C)C)c1O is 26

---

TARGET_DESC: Metabotropic glutamate receptor 2 (Homo sapiens, UniProt Q14416)
EXPERIMENT_SUMMARY: Binding affinity towards human metabotropic glutamate receptor 2 determined by [35S]GTP gamma S binding assay
Type: functional
Listing: EC50 of selected compounds
# output: numeric value plus its unit

Examples from the recorded data:
[[record]]
chemical_string = "Cc1c(OCc2ccc(CSc3ccncc3)cc2)ccc(C(=O)CC(C)C)c1O"
target_desc = "Metabotropic glutamate receptor 2 (Homo sapiens, UniProt Q14416)"
value_reported = "770 nM"

[[record]]
chemical_string = "Cc1c(OCc2cccc(CSc3ccncc3)c2)ccc(C(=O)CC(C)C)c1O"
target_desc = "Metabotropic glutamate receptor 2 (Homo sapiens, UniProt Q14416)"
value_reported = "819 nM"


EC50 on Metabotropic glutamate receptor 2 (Homo sapiens, UniProt Q14416) for Cc1c(OCCCCSc2cccnc2)ccc(C(=O)CC(C)C)c1O is 1090 nM

---

TARGET_DESC: UniProt Q14416
EXPERIMENT_SUMMARY: Potentiation as percent of maximum glutamate response at 1 mM
OBSERVATION_TYPE: Potentiation (%)
The reply should contain only the number, in %.

[[record]]
chemical_string = "Cc1c(OCc2ccc(Sc3ccncc3)cc2)ccc(C(=O)CC(C)(C)C)c1O"
target_desc = "UniProt Q14416"
observation_type = "Potentiation"
value_reported = 79

[[record]]
chemical_string = "Cc1c(OCc2ccc(CSc3ccncc3)cc2)ccc(C(=O)CC(C)C)c1O"
target_desc = "UniProt Q14416"
observation_type = "Potentiation"
value_reported = 78


// next entry
Given item Cc1c(OCCCCSc2ccncc2)ccc(C(=O)CC(C)C)c1O , the value recorded as its Potentiation is 33
